Tested on: mouse macrophages
test method notes: stimulated release of TNF-α from mouse macrophages
Type: cell-based
run conditions: Mus musculus, Macrophage; read-out: EC50, stimulated release of TNF-α from mouse macrophages
# Lookup of reported EC50 keyed by entry
Write the number in nM without appending the unit.

// returns EC50 for O=C(NC1C[C@@H]1c1ccc(F)cc1)[C@@H]1CN(C(=O)c2ccc(C(=O)N3C[C@@H](C(=O)NC4C[C@@H]4c4ccc(F)cc4)[C@H](C(=O)NC4C[C@@H]4c4ccc(F)cc4)C3)cc2)C[C@H]1C(=O)NC1C[C@@H]1c1ccc(F)cc1 (some centres unmarked) with mouse macrophages; value = 1.2

// returns EC50 for CCCCCCNC(=O)[C@@H]1CN(C(=O)c2ccc(C(=O)N3C[C@@H](C(=O)N[C@H]4C[C@@H]4c4ccccc4)[C@H](C(=O)N[C@H]4C[C@@H]4c4ccccc4)C3)cc2)C[C@H]1C(=O)NCCCCCC with mouse macrophages; value = 4

Data origin, for the record: patent US11040959B2
